measurement.target: Peptide deformylase (Escherichia coli, UniProt Q9JN24)
Sequence (Q9JN24 whole entry): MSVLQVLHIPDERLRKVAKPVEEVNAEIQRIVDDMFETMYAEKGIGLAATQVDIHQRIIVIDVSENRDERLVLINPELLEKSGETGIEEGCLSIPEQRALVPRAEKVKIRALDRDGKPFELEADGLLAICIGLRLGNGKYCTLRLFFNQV
assay: Inhibitory effect against Escherichia coli peptide deformylase (PDF) by DPPI assay
Provide the reported pKi of each item.
Give bare numbers, as −log10 of the molar value.

Illustrative cases are given below, each with its answer.
Data request: Supply reported pKi belonging to this compound: CCCC[C@H](CN(O)C=O)C(=O)N[C@@H](CCCCN)C(=O)Nc1ccccc1
Data returned: 7.64

Data request: Supply reported pKi belonging to this compound: CC(=O)NCCCC[C@@H]1NC(=O)[C@@H](CN(O)C=O)CCCCCCCCCNC1=O
Data returned: 6.15

Data request: Supply reported pKi belonging to this compound: CC(C)(C)[C@@H]1NC(=O)[C@@H](CN(O)C=O)CCCCCCCCCCCNC1=O
Data returned: 7.11

Hey, can you go through the list below and give me pKi for every item?
1. CC(C)(C)[C@@H]1NC(=O)[C@@H](CN(O)C=O)CCCCCCCCCCNC1=O
2. CC(C)(C)[C@@H]1NC(=O)[C@@H](CN(O)C=O)CCCCCCCCCNC1=O

Data returned:
7.02
6.96
